Target system: GI.3P-GI.2 TX1 3CLpro (Rabbit hemorrhagic disease virus 2)
Sequence (A0A7M4BDB7 1109-1251 limits assumed): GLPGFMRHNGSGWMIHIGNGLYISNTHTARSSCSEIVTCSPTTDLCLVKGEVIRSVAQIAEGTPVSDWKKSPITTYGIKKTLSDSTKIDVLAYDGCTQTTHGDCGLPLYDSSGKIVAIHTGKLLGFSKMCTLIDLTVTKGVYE
Procedure text: FRET assay, 3CLpro of GI.3P-GI.2 TX1 strain
Measurement context: 30 min preincubation with 3CLpro, 30 min with substrate, mean ± SEM, at least three experiments
Reported endpoint: log10 IC50 (log10 of the value in nM)
A difference of one corresponds to tenfold IC50; all values are log10 with IC50 in nM.

Here are 4 compounds together with their reported answers.
{"Compound": "O=C(N[C@@H](CC1CCCCC1)C(=O)N[C@H](C[C@@H]1CCNC1=O)C(=O)C(=O)NC1CC1)OCc1cccc(Cl)c1", "Reported": 2.86}
{"Compound": "CC(C)C[C@H](NC(=O)OCc1ccccc1)C(=O)N[C@H](C[C@@H]1CCNC1=O)C(O)S(=O)(=O)O (some centres unmarked)", "Reported": 3.14}
{"Compound": "O=C[C@@H](C[C@@H]1CCNC1=O)NC(=O)[C@H](CC1CCCCC1)NC(=O)OCc1cccc(Cl)c1", "Reported": 2.00}
{"Compound": "CC(C)CC(NC(=O)C(Cc1cccc2ccccc12)NC(=O)OCc1ccccc1)C(=O)NC(C=O)CC1CCNC1=O (centres unmarked)", "Reported": 2.76}

// switching to the query compound
(Q) What reported log10 IC50 corresponds to O=C[C@@H](C[C@@H]1CCNC1=O)NC(=O)[C@H](CC1CCCCC1)NC(=O)OCc1ccccc1 on GI.3P-GI.2 TX1 3CLpro (Rabbit hemorrhagic disease virus 2)?
(A) 2.08
